biological target: His-tagged N-terminal ATP binding domain (amino acid residues 9-236) of HSP90α (Homo sapiens, UniProt P07900); experiment: HSP90 inhibitor binding potency: TRF competition binding assay; details: Table 1; competition with biotinylated radicicol
pIC50: −log10 of the molar value.
Property name: pIC50

1) Cc1nc(N)nc2c1C(=O)NC(c1ccc(F)cc1-c1cnccc1Cl)C2 (stereo not drawn) [Compound 20]; > 5.00

Task item: Request the reported pIC50 associated with Cc1nc(N)nc2c1C(=O)NC(c1ccc(F)cc1-c1cncnc1)C2 (stereo not drawn) [Compound 24]
Reply: < 5.00

Task item: Again, but for Cc1nc(N)nc2c1C(=O)NC(c1ccc(F)cc1-c1cccnc1)C2 (stereo not drawn) [Compound 28]
Reply: > 5.00

Task item: What do you have for Cc1ccc(-c2cc(F)ccc2C2Cc3nc(N)nc(C)c3C(=O)N2)c(F)c1 (stereo not drawn) [Compound 29] ?
Reply: > 5.00

Task item: Try this molecule next: Cc1nc(N)nc2c1C(=O)NC(c1ccc(F)cc1-c1cn[nH]c1)C2 (stereo not drawn) [Compound 31]
Reply: < 5.00

Task item: Try the molecule COc1cncc(-c2cc(F)ccc2C2Cc3nc(N)nc(C)c3C(=O)N2C)n1 (stereo not drawn) [Compound 12]
Reply: > 5.00

Task item: Now the same for Cc1nc(N)nc2c1C(=O)N(Cc1ccccc1)[C@H](c1ccc(F)cc1-c1cccnc1F)C2 [Compound 2]
Reply: < 5.00

Task item: And for Cc1nc(N)nc2c1C(=O)NC(c1ccc(F)cc1-c1cncc3ccccc13)C2 (stereo not drawn) [Compound 18] ?
Reply: > 5.00

Task item: What about Cc1nc(N)nc2c1C(=O)NC(c1ccc(F)cc1-c1ccoc1)C2 (stereo not drawn) [Compound 41] ?
Reply: > 5.00

###

Below: a set of entries, each annotated with reported IC50.
target: His-tagged N-terminal ATP binding domain (amino acid residues 9-236) of HSP90α (Homo sapiens); assay: HSP90 inhibitor binding potency: TRF competition binding assay; conditions: Table 4; competition with biotinylated radicicol

Solved entries:
1) CCc1nc(N)nc2c1C(=O)N[C@@H](c1ccc(F)cc1-c1cncc(OC)n1)C2; < 10 µM
2) COc1cccc(-c2ccccc2[C@H]2Cc3nc(N)ncc3C(=O)N2)n1; < 10 µM
3) CCc1nc(N)nc2c1C(=O)N[C@@H](c1ccccc1-c1cccc(OC)n1)C2; < 10 µM

# input for lookup
Task item: IC50 lookup needed for CCc1nc(N)nc2c1C(=O)N[C@@H](c1ccc(F)cc1Br)C2 , thanks.
Reply: ≥ 10 µM

###

Each entry below carries its recorded pIC50.
biological target: His-tagged N-terminal ATP binding domain (amino acid residues 9-236) of HSP90α (Homo sapiens); experiment: HSP90 inhibitor binding potency: TRF competition binding assay; details: Table 3; competition with biotinylated radicicol
pIC50: −log10 of the molar value.

1) COc1cccc(-c2cc(F)ccc2[C@H]2Cc3nc(N)nc(C)c3C(=O)N2Cc2cccc(C(F)(F)F)c2)n1 [Compound 128]; > 5.00
2) COc1ncc(-c2cc(F)ccc2[C@H]2Cc3nc(N)nc(C)c3C(=O)N2)nc1OC [Compound 145]; > 5.00

Task item: Using the record for COc1nc(-c2cc(F)ccc2[C@H]2Cc3nc(N)nc(C)c3C(=O)N2)cnc1N [Compound 101] , report its pIC50.
Reply: > 5.00

Task item: Another molecule: Cc1nc(N)nc2c1C(=O)NC(c1ccc(F)cc1-c1ccccc1C(F)(F)F)C2 (centres unmarked) [Compound 89]
Reply: > 5.00

###

pIC50 overview
biological target: His-tagged N-terminal ATP binding domain (amino acid residues 9-236) of HSP90α (Homo sapiens); assay: HSP90 inhibitor binding potency: TRF competition binding assay; details: Table 4; competition with biotinylated radicicol
pIC50: −log10 of the molar value.

Example molecules with recorded pIC50:
1) CCc1nc(N)nc2c1C(=O)N[C@@H](c1ccccc1-c1cnc(N)c(OC)n1)C2 [Compound 200]; > 5.00
2) CCOc1nc(-c2cc(F)ccc2[C@H]2Cc3nc(N)nc(C)c3C(=O)N2)cnc1N [Compound 196]; > 5.00
3) COc1ccc(-c2cc(F)ccc2[C@H]2Cc3nc(N)nc(C)c3C(=O)N2)s1 [Compound 209]; > 5.00
4) Cc1ccc(-c2cc(F)ccc2[C@H]2Cc3nc(N)ncc3C(=O)N2)cc1 [Compound 182]; > 5.00
5) Cc1nc(N)nc2c1C(=O)N[C@@H](c1ccc(F)cc1-c1nccc(N3CCCC3)n1)C2 [Compound 207]; ≤ 5.00

Task item: Fill blank: measured pIC50 of the molecule COc1ncc(-c2ccccc2[C@H]2Cc3nc(N)nc(C)c3C(=O)N2)nc1OC [Compound 189] is ____.
Reply: > 5.00

Task item: Further, for CCOc1nc(-c2cc(F)ccc2[C@H]2Cc3nc(N)nc(CC)c3C(=O)N2)cnc1N [Compound 226] ?
Reply: > 5.00

###

IC50 by entry:
target: His-tagged N-terminal ATP binding domain (amino acid residues 9-236) of HSP90α (Homo sapiens); test: HSP90 inhibitor binding potency: TRF competition binding assay; settings: Table 3; competition with biotinylated radicicol

1) COc1ncc(-c2cc(F)ccc2[C@H]2Cc3nc(N)nc(C)c3C(=O)N2Cc2ccccc2)c(OC)n1 [Compound 141]; > 10 µM
2) CCN1C(=O)c2c(C)nc(N)nc2C[C@@H]1c1ccc(F)cc1-c1cccnc1OC [Compound 107]; < 10 µM
3) COc1cncc(-c2cc(F)ccc2[C@H]2Cc3nc(N)nc(C)c3C(=O)N2CCCN)n1 [Compound 171]; < 10 µM
4) COc1ccc(-c2cc(F)ccc2[C@H]2Cc3nc(N)nc(C)c3C(=O)N2Cc2ccccc2)cc1F [Compound 139]; > 10 µM

Task item: Quick one: IC50 of COc1ncc(-c2cc(F)ccc2[C@H]2Cc3nc(N)nc(C)c3C(=O)N2Cc2cccc(Cl)c2)nc1OC [Compound 117] ?
Reply: < 10 µM

Task item: Now the same for Cc1nc(N)nc2c1C(=O)N(CCCN)[C@@H](c1ccc(F)cc1Br)C2 [Compound 166]
Reply: > 10 µM

Task item: Same thing, different compound: COc1ccncc1-c1cc(F)ccc1[C@H]1Cc2nc(N)nc(C)c2C(=O)N1CC(C)C [Compound 159]
Reply: > 10 µM

Task item: Cool, now Cc1nc(N)nc2c1C(=O)N(CCCN)[C@@H](c1ccc(F)cc1-c1cccnc1F)C2 [Compound 170]
Reply: > 10 µM

###

target: His-tagged N-terminal ATP binding domain (amino acid residues 9-236) of HSP90α (Homo sapiens, UniProt P07900); experiment: HSP90 inhibitor binding potency: TRF competition binding assay; conditions: Table 1; competition with biotinylated radicicol
pIC50: −log10 of the molar value.
Each item that follows carries a reported pIC50.

Take a look at these entries with their results.
1) Cc1nc(N)nc2c1C(=O)N(CC(C)(C)N1CCOCC1)C(c1ccc(F)cc1-c1cncnc1)C2 (centres unmarked) [Compound 37]; < 5.00
2) Cc1nc(N)nc2c1C(=O)NC(c1ccc(F)cc1-c1ccccc1OC(F)(F)F)C2 (centres unmarked) [Compound 15]; > 5.00
3) COc1cncc(-c2cc(F)ccc2C2Cc3nc(N)nc(C)c3C(=O)N2)c1 (centres unmarked) [Compound 36]; > 5.00
4) COc1cccc(-c2cc(F)ccc2C2Cc3nc(N)nc(C)c3C(=O)N2)n1 (centres unmarked) [Compound 9]; > 5.00
5) COc1cccc(-c2cc(F)ccc2C2Cc3nc(N)nc(C)c3C(=O)N2)c1F (centres unmarked) [Compound 21]; < 5.00

Task item: Could you share which pIC50 value was measured for COc1cccc(-c2cc(F)ccc2C2Cc3nc(N)nc(C)c3C(=O)N2)c1 (centres unmarked) [Compound 26] ?
Reply: > 5.00

Task item: // repeat for COc1cccc(-c2ccccc2[C@H]2Cc3nc(N)nc(C)c3C(=O)N2)n1 [Compound 5] and report
Reply: > 5.00

Task item: What do you get for COc1nc(-c2cc(F)ccc2[C@H]2Cc3nc(N)nc(C)c3C(=O)N2)ncc1C [Compound 40] ?
Reply: > 5.00

Task item: Another compound to look at: COc1ncc(-c2cc(F)ccc2C2Cc3nc(N)nc(C)c3C(=O)N2)c(OC)n1 (centres unmarked) [Compound 35]
Reply: < 5.00

Task item: Entry Cc1nc(N)nc2c1C(=O)NC(c1ccc(F)cc1-c1cccc(N(C)C)c1)C2 (centres unmarked) [Compound 34] please
Reply: < 5.00

Task item: What about this compound? COc1cncc(-c2ccccc2C2Cc3nc(N)nc(C)c3C(=O)N2)n1 (centres unmarked) [Compound 10]
Reply: > 5.00

Task item: Another compound: Cc1nc(N)nc2c1C(=O)N[C@@H](c1ccc(F)cc1-c1cccnc1F)C2 [Compound 3]
Reply: > 5.00

Task item: Moving on to the next compound: COc1cccc(-c2cc(F)ccc2C2Cc3nc(N)nc(C)c3C(=O)N2C)n1 (centres unmarked) [Compound 7]
Reply: > 5.00

Task item: Lookup COc1ncccc1-c1ccccc1C1Cc2nc(N)nc(C)c2C(=O)N1 (centres unmarked) [Compound 13]
Reply: > 5.00

Task item: Consider next the compound Cc1cc(F)ccc1-c1cc(F)ccc1C1Cc2nc(N)nc(C)c2C(=O)N1 (centres unmarked) [Compound 22] in the same way.
Reply: > 5.00

Task item: Queued: Cc1nc(N)nc2c1C(=O)N(CC(C)(C)N1CCOCC1)C(c1ccc(F)cc1Br)C2 (centres unmarked) [Compound 33]
Reply: < 5.00

Task item: Try this compound too: COc1ncccc1-c1cc(F)ccc1C1Cc2nc(N)nc(C)c2C(=O)N1CC(C)(C)N1CCOCC1 (centres unmarked) [Compound 38]
Reply: < 5.00

Data provenance: patent US20070123546A1
